Target: Polyunsaturated fatty acid 5-lipoxygenase (Homo sapiens)
Sequence (whole entry): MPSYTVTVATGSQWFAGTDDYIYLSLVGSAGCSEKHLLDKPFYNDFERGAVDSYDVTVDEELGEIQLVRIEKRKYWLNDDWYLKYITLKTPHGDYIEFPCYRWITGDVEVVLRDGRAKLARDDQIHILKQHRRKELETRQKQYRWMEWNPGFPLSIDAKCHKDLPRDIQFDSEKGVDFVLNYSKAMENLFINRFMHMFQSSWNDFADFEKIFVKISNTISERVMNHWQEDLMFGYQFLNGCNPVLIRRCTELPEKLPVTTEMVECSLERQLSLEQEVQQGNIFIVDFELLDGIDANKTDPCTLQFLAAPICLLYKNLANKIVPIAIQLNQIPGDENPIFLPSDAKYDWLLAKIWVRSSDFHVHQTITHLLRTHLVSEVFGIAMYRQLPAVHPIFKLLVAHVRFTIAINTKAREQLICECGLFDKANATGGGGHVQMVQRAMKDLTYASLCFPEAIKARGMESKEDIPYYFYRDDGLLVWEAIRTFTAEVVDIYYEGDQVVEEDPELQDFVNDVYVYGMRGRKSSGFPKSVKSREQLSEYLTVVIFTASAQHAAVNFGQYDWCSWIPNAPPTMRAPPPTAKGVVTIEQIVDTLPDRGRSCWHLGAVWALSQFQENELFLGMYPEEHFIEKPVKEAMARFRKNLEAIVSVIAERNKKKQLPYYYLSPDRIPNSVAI
Experiment: Inhibition of 5-LOX in human Neutrophil assessed as enzyme remaining activity at 10 uM using arachidonic acid as substrate preincubated with compound for 15 mins followed by substrate and A23187 addition measured after 10 mins by RP-HPLC analysis relative to control
Assay type: cell-based
Settings: time 25.0 min
Quick reference for Activity among some molecules
observation-type: Activity

O=C(O)c1ccccc1C(=O)OC1CCc2ccccc2C1 (stereo not drawn)
103%
O=C1C(=O)C(CCc2ccccc2)C(=O)/C1=C/c1ccccc1 (stereo not drawn)
80.6%
O=C(NCc1ccco1)Nc1cccc(-c2ccccc2)c1
92.4%
N=C1OC(c2c[nH]c3ccc(OCc4ccccc4)cc23)C(O)=C1O (stereo not drawn)
92.3%
Cc1ccc(Nc2nnc(-c3ccc4c(c3)OCO4)o2)c(C)c1
69.8%
CC(=O)c1ccc(NCN2C(=O)c3ccccc3C2=O)cc1
91.8%
N=c1c2c(ncn1Cc1ccccc1)CCN(Cc1ccccc1)C2
80.1%
CC(=O)NC(CC(=O)Nc1cccc2c1Cc1ccccc1-2)C(=O)O (stereo not drawn)
102%
O=C1N=C(Nc2nc3ccccc3[nH]2)OC1c1ccccc1 (stereo not drawn)
102%
Cc1cc(=O)oc(C)c1C(=O)Oc1ccc2ccccc2c1
79.5%
CC1CCc2c(c(CC3CC(=O)NC(=O)C3)nn2-c2ccccc2)C1 (stereo not drawn)
101%
Oc1nc(Cc2ccc3ccccc3n2)cc(-c2ccccc2)n1
111%
Oc1ccc(CCC2CCC(c3ccc(O)cc3)CO2)cc1 (stereo not drawn)
24.3%
O=C1C/C(=C/c2cccc(OCc3ccccc3)c2)C(=O)N1
67.1%
O=C1c2ccccc2C(=O)N1CCc1nc(-c2ccccc2)c[nH]1
99.2%
O=C1C(C(O)c2ccccc2)CCCC1C(O)c1ccccc1 (stereo not drawn)
77.9%
COc1ccc(C2=C/C(=C/c3ccc(O)cc3O)C(=O)O2)cc1
18.6%
O=C1Nc2ccccc2/C1=N\CCc1c[nH]c2ccccc12
42.8%
CC(=O)NC(CCc1ccc(Cl)c(Cl)c1)c1cccc(O)c(=O)c1 (stereo not drawn)
49.5%
NNC(=O)CCc1ccc2ccc3ccccc3c2c1
93.1%
COC(=O)c1ccc(NCc2cc(O)c3ccccc3c2O)cc1
1.9%
N=C(N)/N=C(/C=C/c1ccccc1)CC1OC(=O)c2ccccc21 (stereo not drawn)
68%
O=C(c1ccc2ccccc2n1)C(O)c1ccc2ccccc2n1 (stereo not drawn)
99.6%
